- Method: NCI Yeast Anticancer Drug Screen. Data for the rad50 strain (AID 155);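 further: 0% = growth of vehicle-only cultures of the same strain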
- Conditions used: S. cerevisiae rad50 strain growth inhibition; at 50.0 µM (retest, dose inferred, filed as 5.0); active compounds read high
About 79,000 compounds went through this panel and 15% of them were active in at least one assay; those are over-represented in the sample as a whole.
Consider the following compounds; for each one, report its growth inhibition.
Provide only the numeric value, understood in %.

Prompt: Tell me measured growth inhibition for CCOC(=O)c1c(-c2ccccc2)csc1NC(=O)CBr please.
Response: 98

Prompt: Tell me measured growth inhibition for CC(C)C(=O)OCC(C)(C)C1OCC(C)(C)C(C(C)C)O1 (stereo not drawn) please.
Response: -9

Prompt: Tell me measured growth inhibition for CCCCNC(C)(C)COC(=O)/C=C/c1ccc(OCCCC)cc1 please.
Response: 79

Prompt: Tell me measured growth inhibition for NC1CCCCC1N.O=S(=O)([O-])CCCN1CCN(CCO)CC1.O=S(=O)([O-])CCCN1CCN(CCO)CC1.[Pt+4] please.
Response: 98

Prompt: Tell me measured growth inhibition for O=C(c1ccco1)N(C(=S)N1CCN(c2ccccn2)CC1)c1ccccc1 please.
Response: 76

Prompt: Tell me measured growth inhibition for Nc1nc2nc(I)[nH]c2c(=O)[nH]1 please.
Response: -4

Prompt: Tell me measured growth inhibition for CC(=O)ON=C1C=CC(=C(C#N)c2ccccc2)C=C1 please.
Response: 99

Prompt: Tell me measured growth inhibition for CC(C(O)c1ccccc1)C(O)(C(F)(F)F)C(F)(F)F (stereo not drawn) please.
Response: 13

Prompt: Tell me measured growth inhibition for O=C(O)[C@@H]1CCCC[C@@H]1C(=O)N(C1CCCCC1)C1CCCCC1 please.
Response: 79

Prompt: Tell me measured growth inhibition for CCOC(=O)C1SC(=Nc2ccc(Cl)cc2)N=C1C (stereo not drawn) please.
Response: 56

Prompt: Tell me measured growth inhibition for COc1ccc(C2C3=C(CCC(CN(C)C)C3=O)OC3=C2C(=O)C(CN(C)C)CC3)cc1 (stereo not drawn) please.
Response: -7

Prompt: Tell me measured growth inhibition for O=C1OC(=O)C2C3CCC(C3=C3CCCCC3)C12 (stereo not drawn) please.
Response: 93

Prompt: Tell me measured growth inhibition for CN(C(=S)c1ccccc1)c1ccccc1 please.
Response: -132

---

- Method: NCI Yeast Anticancer Drug Screen. Data for the cln2 rad14 strain (AID 165);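 further: 0% = growth equal to vehicle treated cultures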
- Conditions used: S. cerevisiae cln2 rad14 strain, at 50.0 µM, active compounds read high
- Description: Growth inhibition of yeast strains with defined genetic alterations is measured as a screen for potential anti-cancer activity. Selected strains with alterations in DNA damage repair or cell cycle control were exposed to compounds and growth inhibition was measured relative to vehicle treated controls. The strain used in this assay is cln2 rad14
This is part of a sample that, as a whole, favours compounds with a hit. Of some 79,000 tested, about 15% had one in any assay. The source made the active and inactive calls. Rule as the data show it: active = growth inhibition above about 70%; inactive = the rest.
Consider the following molecules; for each one, report its growth inhibition.

Prompt: Tell me measured growth inhibition for O=C(CC(=O)c1ccccc1)CC1(O)CCCCC1 please.
Response: 50.4% (inactive)

Prompt: Tell me measured growth inhibition for [NH-]c1ccccc1[S-].[NH-]c1ccccc1[S-].[Zn] please.
Response: 96.3% (active)

Prompt: Tell me measured growth inhibition for CNC(=O)N/N=C/c1ccc([N+](=O)[O-])o1 please.
Response: 11.8% (inactive)

Prompt: Tell me measured growth inhibition for Nc1nc(N)c2cc(S(=O)c3ccc4ccccc4c3)ccc2n1 (configuration not stated) please.
Response: -42.4% (inactive)

Prompt: Tell me measured growth inhibition for Cc1cccc2c1C1OC(=O)C3CCC=C2C31 (configuration not stated) please.
Response: 64.9% (inactive)

Prompt: Tell me measured growth inhibition for O=C1c2ccccc2C(=O)c2sc(Nc3ccc(Cl)cc3)nc21 please.
Response: 88.8% (active)

Prompt: Tell me measured growth inhibition for O=C1NC2(C=Cc3c(ccc4ccccc34)O2)Oc2ccccc21 (configuration not stated) please.
Response: 24.4% (inactive)
